test system: CYP3A4; test: CYP3A4 enzyme induction assay in cryopreserved primary human hepatocytes (PHH); conditions: PHH; Lab 1; batch 0 6 A
Counter-ions that a name gives are not always drawn.
readout name: Assigned classification CYP3A4

{"molecule": "O=C1NC(=O)C(c2ccccc2)(c2ccccc2)N1 [Phenytoin sodium]", "test system": "CYP3A4", "measured number": 1}
{"molecule": "NC(=O)N1c2ccccc2C=Cc2ccccc21 [Carbamazepine]", "test system": "CYP3A4", "measured number": 1}
{"molecule": "O=C1Nc2ccc(Cl)cc2[C@@](C#CC2CC2)(C(F)(F)F)O1 [Efavirenz]", "test system": "CYP3A4", "measured number": 1}
{"molecule": "COc1ccc2[nH]c([S+]([O-])Cc3ncc(C)c(OC)c3C)nc2c1 (stereo not shown) [Omeprazole]", "test system": "CYP3A4", "measured number": 1}
{"molecule": "CC(C)NCC(O)c1ccc(NS(C)(=O)=O)cc1 (stereo not shown) [Sotalol hydrochloride]", "test system": "CYP3A4", "measured number": 0}

P: COc1ccccc1Oc1c(NS(=O)(=O)c2ccc(C(C)(C)C)cc2)nc(-c2ncccn2)nc1OCCO [Bosentan hydrate]
Q: COCCc1ccc(OCC(O)CNC(C)C)cc1 (stereo not shown) [Metoprolol]
*Q* Could you check which of P and Q has a smaller value for Assigned classification CYP3A4? Give the label under which the chosen entry appears.
*A* Q

---

tested on: CYP1A2; test: CYP1A2 enzyme induction assay in cryopreserved HepaRG cells (phenacetin probe, LC/MS); type: in vitro ADME, human; conditions: HepaRG; Lab 3; batch 20; further: key: 1=Positive=inducer; 0=Negative=non-inducer
Structures can show the parent of a compound that is named as a salt.
readout name: Assigned classification CYP1A2

Completed entries (count: 2):
{"compound": "CO[C@H]1/C=C/O[C@@]2(C)Oc3c(C)c(O)c4c(O)c(c(/C=N/N5CCN(C)CC5)c(O)c4c3C2=O)NC(=O)/C(C)=C\\C=C\\[C@H](C)[C@H](O)[C@@H](C)[C@@H](O)[C@@H](C)[C@H](OC(C)=O)[C@@H]1C", "Assigned classification CYP1A2": 1}
{"compound": "COc1ccccc1Oc1c(NS(=O)(=O)c2ccc(C(C)(C)C)cc2)nc(-c2ncccn2)nc1OCCO [Bosentan hydrate]", "Assigned classification CYP1A2": 1}

1: COCCc1ccc(OCC(O)CNC(C)C)cc1 (stereo not shown)
2: CC(C)NCC(O)c1ccc(NS(C)(=O)=O)cc1 (stereo not shown) [Sotalol hydrochloride]
*Q* Could you point out whether the larger Assigned classification CYP1A2 belongs to 1 or to 2 ? Give the label under which the chosen entry appears.
*A* 2

I: COc1ccc2[nH]c([S+]([O-])Cc3ncc(C)c(OC)c3C)nc2c1 (stereo not shown)
II: NC(=O)N1c2ccccc2C=Cc2ccccc21 [Carbamazepine]
*Q* Could you check which of I and II has a smaller value for Assigned classification CYP1A2? Give the label under which the chosen entry appears.
*A* II
(II: 0, I: 1)

---

system: CYP1A2; assay: CYP1A2 enzyme induction assay in cryopreserved HepaRG cells (phenacetin probe, LC/MS); type: in vitro ADME, human; conditions: HepaRG; Lab 2; batch 36; further: key: 1=Positive=inducer; 0=Negative=non-inducer
Where a name gives a salt, the structure may show the parent alone.
readout name: Assigned classification CYP1A2

{"compound": "COc1ccccc1Oc1c(NS(=O)(=O)c2ccc(C(C)(C)C)cc2)nc(-c2ncccn2)nc1OCCO [Bosentan hydrate]", "Assigned classification CYP1A2": 1}
{"compound": "COc1ccc2[nH]c([S+]([O-])Cc3ncc(C)c(OC)c3C)nc2c1 (stereo not shown)", "Assigned classification CYP1A2": 1}
{"compound": "CO[C@H]1/C=C/O[C@@]2(C)Oc3c(C)c(O)c4c(O)c(c(/C=N/N5CCN(C)CC5)c(O)c4c3C2=O)NC(=O)/C(C)=C\\C=C\\[C@H](C)[C@H](O)[C@@H](C)[C@@H](O)[C@@H](C)[C@H](OC(C)=O)[C@@H]1C", "Assigned classification CYP1A2": 1}
{"compound": "CC(C)NCC(O)c1ccc(NS(C)(=O)=O)cc1 (stereo not shown) [Sotalol hydrochloride]", "Assigned classification CYP1A2": 0}
{"compound": "NC(=O)N1c2ccccc2C=Cc2ccccc21 [Carbamazepine]", "Assigned classification CYP1A2": 1}

P: O=C1NC(=O)C(c2ccccc2)(c2ccccc2)N1 [Phenytoin sodium]
Q: COCCc1ccc(OCC(O)CNC(C)C)cc1 (stereo not shown)
*Q* Could you point out whether the larger Assigned classification CYP1A2 belongs to P or to Q ? Give the label under which the chosen entry appears.
*A* P
(P: 1, Q: 0)

---

tested on: CYP3A4; test: CYP3A4 enzyme induction assay in cryopreserved primary human hepatocytes (PHH); details: PHH; Lab 1; batch 8 0 8
Structures can show the parent of a compound that is named as a salt.
readout name: Assigned classification CYP3A4

{"compound": "COc1ccccc1Oc1c(NS(=O)(=O)c2ccc(C(C)(C)C)cc2)nc(-c2ncccn2)nc1OCCO [Bosentan hydrate]", "measured number": 1}
{"compound": "COCCc1ccc(OCC(O)CNC(C)C)cc1 (stereo not shown)", "measured number": 0}
{"compound": "COc1ccc2[nH]c([S+]([O-])Cc3ncc(C)c(OC)c3C)nc2c1 (stereo not shown)", "measured number": 1}
{"compound": "O=C1Nc2ccc(Cl)cc2[C@@](C#CC2CC2)(C(F)(F)F)O1", "measured number": 1}
{"compound": "NC(=O)N1c2ccccc2C=Cc2ccccc21 [Carbamazepine]", "measured number": 1}

I: O=C1NC(=O)C(c2ccccc2)(c2ccccc2)N1 [Phenytoin sodium]
II: CC(C)NCC(O)c1ccc(NS(C)(=O)=O)cc1 (stereo not shown) [Sotalol hydrochloride]
*Q* Could you point out whether the larger Assigned classification CYP3A4 belongs to I or to II ? Give the label under which the chosen entry appears.
*A* I
(I: 1, II: 0)

---

test: Solubility by nephelometry (EURL ECVAM); assay type: physicochemical; details: ECVAM nephelometry, PHH medium; ^2 = solubility limit
readout name: PHH medium stability (µg/mL)

{"compound": "CO[C@H]1/C=C/O[C@@]2(C)Oc3c(C)c(O)c4c(c3C2=O)C2=NC3(CCN(CC(C)C)CC3)NC2=C(NC(=O)/C(C)=C\\C=C\\[C@H](C)[C@H](O)[C@@H](C)[C@@H](O)[C@@H](C)[C@H](OC(C)=O)[C@@H]1C)C4=O [Rifabutin]", "PHH medium stability / µg/mL": 40}

I: CC1(C)S[C@@H]2[C@H](NC(=O)Cc3ccccc3)C(=O)N2[C@H]1C(=O)O [Penicillin G sodium]
II: O=C1NC(=O)C(c2ccccc2)(c2ccccc2)N1 [Phenytoin sodium]
*Q* Could you check which of I and II has a smaller value for PHH medium stability? Give the label under which the chosen entry appears.
*A* II

---

test system: CYP2B6; experiment: CYP2B6 enzyme induction assay in cryopreserved primary human hepatocytes (PHH); format: in vitro ADME; details: PHH; Lab 3; batch 4 0 8;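 further: code 1 means positive inducer and 0 means non-inducer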
readout name: Assigned classification CYP2B6

Completed entries (count: 3):
{"molecule": "CO[C@H]1/C=C/O[C@@]2(C)Oc3c(C)c(O)c4c(c3C2=O)C2=NC3(CCN(CC(C)C)CC3)NC2=C(NC(=O)/C(C)=C\\C=C\\[C@H](C)[C@H](O)[C@@H](C)[C@@H](O)[C@@H](C)[C@H](OC(C)=O)[C@@H]1C)C4=O", "readout name": "Assigned classification CYP2B6", "measured number": 1}
{"molecule": "COCCc1ccc(OCC(O)CNC(C)C)cc1 (centres unmarked)", "readout name": "Assigned classification CYP2B6", "measured number": 0}
{"molecule": "COc1ccccc1Oc1c(NS(=O)(=O)c2ccc(C(C)(C)C)cc2)nc(-c2ncccn2)nc1OCCO [Bosentan hydrate]", "readout name": "Assigned classification CYP2B6", "measured number": 1}

a: NC(=O)N1c2ccccc2C=Cc2ccccc21 [Carbamazepine]
b: O=C1Nc2ccc(Cl)cc2[C@@](C#CC2CC2)(C(F)(F)F)O1
*Q* Could you check which of a and b has a smaller value for Assigned classification CYP2B6? Give the label under which the chosen entry appears.
*A* b
(b: 0, a: 1)

---

tested on: CYP2B6; assay: CYP2B6 enzyme induction assay in cryopreserved primary human hepatocytes (PHH); type: in vitro ADME; settings: PHH; Lab 3; batch 8 0 8;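 further: code 1 means positive inducer and 0 means non-inducer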
Where a name gives a salt, the structure may show the parent alone.
readout name: Assigned classification CYP2B6

{"compound": "O=C1NC(=O)C(c2ccccc2)(c2ccccc2)N1 [Phenytoin sodium]", "test system": "CYP2B6", "Assigned classification CYP2B6": 1}
{"compound": "O=C1Nc2ccc(Cl)cc2[C@@](C#CC2CC2)(C(F)(F)F)O1", "test system": "CYP2B6", "Assigned classification CYP2B6": 0}
{"compound": "CO[C@H]1/C=C/O[C@@]2(C)Oc3c(C)c(O)c4c(c3C2=O)C2=NC3(CCN(CC(C)C)CC3)NC2=C(NC(=O)/C(C)=C\\C=C\\[C@H](C)[C@H](O)[C@@H](C)[C@@H](O)[C@@H](C)[C@H](OC(C)=O)[C@@H]1C)C4=O", "test system": "CYP2B6", "Assigned classification CYP2B6": 1}
{"compound": "NC(=O)N1c2ccccc2C=Cc2ccccc21 [Carbamazepine]", "test system": "CYP2B6", "Assigned classification CYP2B6": 0}
{"compound": "COc1ccc2[nH]c([S+]([O-])Cc3ncc(C)c(OC)c3C)nc2c1 (stereo not drawn)", "test system": "CYP2B6", "Assigned classification CYP2B6": 1}

1: CO[C@H]1/C=C/O[C@@]2(C)Oc3c(C)c(O)c4c(O)c(c(/C=N/N5CCN(C)CC5)c(O)c4c3C2=O)NC(=O)/C(C)=C\C=C\[C@H](C)[C@H](O)[C@@H](C)[C@@H](O)[C@@H](C)[C@H](OC(C)=O)[C@@H]1C
2: COCCc1ccc(OCC(O)CNC(C)C)cc1 (stereo not drawn)
*Q* Could you point out whether the larger Assigned classification CYP2B6 belongs to 1 or to 2 ? Give the label under which the chosen entry appears.
*A* 1

P: COc1ccccc1Oc1c(NS(=O)(=O)c2ccc(C(C)(C)C)cc2)nc(-c2ncccn2)nc1OCCO [Bosentan hydrate]
Q: CC(C)NCC(O)c1ccc(NS(C)(=O)=O)cc1 (stereo not drawn) [Sotalol hydrochloride]
*Q* Could you point out whether the larger Assigned classification CYP2B6 belongs to P or to Q ? Give the label under which the chosen entry appears.
*A* P
(P: 1, Q: 0)
